test-system: UniProt:P41145
Sequence (P41145 whole entry): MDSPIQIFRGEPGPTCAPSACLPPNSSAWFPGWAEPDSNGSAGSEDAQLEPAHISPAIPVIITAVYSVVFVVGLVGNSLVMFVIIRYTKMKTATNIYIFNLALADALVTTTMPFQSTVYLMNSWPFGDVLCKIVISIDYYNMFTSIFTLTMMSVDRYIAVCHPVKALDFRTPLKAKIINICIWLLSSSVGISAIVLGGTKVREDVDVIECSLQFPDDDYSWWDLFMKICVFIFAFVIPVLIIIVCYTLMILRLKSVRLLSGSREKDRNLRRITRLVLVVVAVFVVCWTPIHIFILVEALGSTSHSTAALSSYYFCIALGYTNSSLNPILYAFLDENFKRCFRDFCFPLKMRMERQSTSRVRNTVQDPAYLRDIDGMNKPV
AC50: recorded values

Reference set, count: 6
COC(=O)[C@H]1[C@H]2C[C@@H]3c4[nH]c5ccccc5c4CCN3C[C@H]2C[C@@H](OC(=O)c2cc(OC)c(OC)c(OC)c2)[C@@H]1OC	13.7 µM
NCC1(CC(=O)O)CCCCC1	> 10 µM
CO/N=C(\C(=O)N[C@@H]1C(=O)N2C(C(=O)O)=C(CSc3nc(C)c(CC(=O)O)s3)CS[C@H]12)c1csc(N)n1	> 30 µM
CS(=O)(=O)NC(=O)CCC/C=C\C[C@H]1C(=O)C[C@@H](O)[C@@H]1/C=C/[C@@H](O)COc1ccccc1	> 30 µM
CN(C)CCC(O)(c1ccccc1)c1ccccc1Cl (configuration not stated)	7.1 µM
CCCCCCOC(=O)NC(=N)c1ccc(NCc2nc3cc(C(=O)N(CCC(=O)OCC)c4ccccn4)ccc3n2C)cc1 [DABIGATRAN ETEXILATE]	> 30 µM

Lookup: Give AC50 (UniProt:P41145) of the following molecule: `COc1cccc2c1C(=O)c1c(O)c3c(c(O)c1C2=O)C[C@@](O)(C(=O)CO)C[C@@H]3O[C@H]1C[C@H](N)[C@H](O)[C@H](C)O1`
Found: > 10 µM
